- System: CAKI-1 renal
- METHOD: NCI-60 one-dose screen, 48 h
- SETTINGS: 10 µM unless noted
The panel holds about 83,000 compounds, 20% with a hit somewhere; the sample as a whole holds those more often. Active and inactive are the calls of the source. Rule for the calls: active = growth percent below 10; inactive = the rest.
Give one outcome, nothing more. List: TRUE = active, FALSE = inactive

Reference set (3 entries):
• O=C(Nc1ccc(S(=O)(=O)N2CCCCC2)cc1)C(Cl)Cl = FALSE
• O=C(CSc1nnc(-c2ccc(-c3nc4ccc(Cl)cc4[nH]3)cc2)o1)Nc1ccccc1 = TRUE
• CS(=O)(=O)Nc1cc(-c2ccc3ncnc(Nc4ccc(OCc5cccnc5)c(Cl)c4)c3c2)cnc1Cl = TRUE

# outcome recorded in this test, key = `COc1ccc2[nH]c(=O)c(CSc3ccccc3Nc3nccc(-c4ccc(C(F)(F)F)cc4)n3)cc2c1`
TRUE

Record lookup: outcome of this test for `CN1C(=O)/C(=C\C(=O)c2cc3ccccc3oc2=O)c2ccccc21` ?
FALSE

Recorded test call requested for `O=C1Nc2ccc(F)cc2/C1=C/C(=O)c1cc2ccccc2oc1=O`
FALSE

Record lookup: outcome of this test for `COC(=O)c1cc(C(=O)CBr)n2c1ccc1c3ccccc3ccc12` ?
FALSE

So what was the verdict on `COc1ccc(/C=C/C(=O)c2ccc(OC)c(S(N)(=O)=O)c2)c(C(F)(F)F)c1` in this test?
FALSE

Call for entry CC(Nc1ncnc2ccc(-c3ccc4oc(N)nc4c3)cc12)c1ccccc1 (stereo not given) :
TRUE

# fetch the recorded call for `COc1sc(/C=N/NC(=O)c2[nH]c3ccc(Br)cc3c2-c2ccccc2)cc1Br` here
FALSE

###

- Tested on: IGROV1 ovarian
- METHOD: NCI-60 one-dose screen, 48 h
- SETTINGS: 10 µM unless noted
About 83,000 compounds went through this panel and 20% of them were active in at least one assay; those are over-represented in the sample as a whole. Calls of active or inactive are those of the source. How the source made its calls: active means growth percent below 10; inactive means the rest.
Could you please pick one outcome from this set? Y (active), N (inactive)

- CN1C(=O)/C(=C/c2ccco2)S/C1=N/c1nccs1: N
- CCc1ccccc1-c1nc(CN[C@@H]2C[C@@H]3C[C@H]([C@H]2C)C3(C)C)c(C)o1: Y

Which result was noted for this compound in the test: CCOc1ccccc1[C@H]1C(C(=O)c2ccc(Cl)cc2)C2(N[C@@H]1c1ccccc1)C(=O)Nc1ccccc12 (stereo not given in full)
N

Look up the recorded call for `COc1ccc2c(c1)N=c1c-2cc2c(O)[nH]c(=S)n2c1=O` in this test.
N

Status in this test for `O=C(Nc1nc2ccc([N+](=O)[O-])cc2s1)Nc1ccc(Cl)cc1Cl` ?
N

###

- Tested on: SW-620 colon
- METHOD: NCI-60 one-dose screen, 48 h
- SETTINGS: 10 µM unless noted
About 83,000 compounds went through this panel and 20% of them were active in at least one assay; those are over-represented in the sample as a whole. Activity calls are given as the source filed them. Rule for the calls: active = growth percent below 10; inactive = the rest.
Reply using exactly one outcome from Yes = active, No = inactive

Study these solved cases before continuing.
• CNc1nc2ccccc2n2c(-c3ccc(O)c(O)c3)cnc12 = No
• CC(=O)C[n+]1cccc2c3ccccc3ccc21 = No

Outcome logged for `Cc1ccc(-c2cc(C(=O)N=Nc3c(O)[nH]c4ccc(F)cc34)c3ccccc3n2)cc1` in this assay:
No

Recorded test outcome, item `O=C(CSc1nnc(-c2ccc(-c3nc4ccccc4[nH]3)cc2)o1)Nc1ccccc1`
No

// param item: `O=C(N/N=C/c1c[nH]c2ccccc12)Nc1ccc(F)c(Cl)c1` ; yields the recorded call
No

Which outcome was assigned to CCc1ccc(SC2c3cc(OC)ccc3Oc3nc(N)c(C#N)c(N)c32)cc1 (centres undefined) in this test?
Yes

What did the test return for `N#Cc1c(NC(=O)N2CCOCC2)n(-c2ccc(OC(F)(F)F)cc2)c2cc(F)ccc12` ?
No

For `O=C(N/N=C/c1ccc(Cl)cc1)c1ccc(OCc2nc3ccc(Cl)cc3[nH]2)cc1` , which call appears in the assay record?
Yes

For `NS(=O)(=O)c1cccc(Nc2nc(SCC(=O)c3ccc(F)cc3)nc3ccccc23)c1` , which call appears in the assay record?
No

Any idea what this test logged for COc1cc(CNC(=O)[C@]23CCC(C)(C)CC2C2=CCC4[C@@]5(C)CCC(OC(C)=O)C(C)(C)C5CC[C@@]4(C)[C@]2(C)CC3)ccc1OCc1cn(-c2ccc(Cl)cc2Cl)nn1 (some centres undefined) ?
No

Test call, this compound: O=C(c1ccc(Cl)cc1)C1[C@H](c2ccccc2Cl)[C@@H](c2ccccc2)NC12C(=O)Nc1ccccc12 (some centres undefined)
Yes

Tell me the assay call for `C=CCSc1nnc(-c2ccc(-c3nc4ccc(Cl)cc4[nH]3)cc2)o1` please.
No

How was `COc1ccc(-c2cc(C)nc3[nH]c(=O)sc23)cc1` classified in this test?
No

###

- Tested on: SK-MEL-5 melanoma
- METHOD: NCI-60 one-dose screen, 48 h (100 = growth as untreated, 0 = no growth, -100 = all killed)
- SETTINGS: 10 µM unless noted
Compounds without any hit were thinned out: in the full panel of roughly 83,000, 20% have a hit.
Listed here: items and their measured growth.
API: value field is a number in %; no unit string.

Suppose we examine the compound `CN(C)C(=O)c1cc(-c2ccc3ncnc(N4CCc5cc(F)c(Cl)cc54)c3c2)cnc1N` ; what growth value has been reported?
-98.9

###

- Tested on: MCF7 breast
- METHOD: NCI-60 one-dose screen, 48 h (100 = growth as untreated, 0 = no growth, -100 = all killed)
- SETTINGS: 10 µM unless noted
- Description: Growth inhibition of the MCF7 human tumor cell line is measured as a screen for anti-cancer activity. Cells are grown in 96 well plates and exposed to the test compound for 48 hours. Compounds are tested at a single concentration, which is 10^-5 M for most compounds. The reported endpoint is percent growth (GI% or GIPRCNT), where numbers from 0 - 100% represent growth inhibition, and numbers from -100% - 0 represent cell death. For example, a value of 40 represents 60% growth inhibition. […]
The panel holds about 83,000 compounds, 20% with a hit somewhere; the sample as a whole holds those more often.
PARAMETER: growth (%)
Respond with the bare value in %.

Consider the following illustrative entries.
- COc1cc(CNC(=O)C[C@H](C)CCC=C(C)C)ccc1OCc1cn(-c2ccc(Br)cc2)nn1: 60.2
- CCCn1c(NC(=O)c2cccc(C(N)=O)c2)nc2ccc(CN3CCCCC3)cc21: 75.6
- O=C(N=Nc1c(O)[nH]c2ccc(Br)cc12)c1ccc2nc(-c3ccc(Cl)cc3)[nH]c2c1: -22.9
- COc1ccc(-c2cc(C)nc3[nH]c(=O)sc23)cc1: 83.8
- COc1ccc(-c2cc(C(=O)Oc3ccc(C=O)cc3OC)nn2-c2ccc(S(C)(=O)=O)cc2)cc1: 84.5

Please give the measured growth for this molecule: Oc1ccc(Cl)c(Nc2nc(SCCN3CCOCC3)nc3c2cnn3CC(Cl)c2ccc(Br)cc2)c1 (centres undefined)
5.55

For the molecule shown here, `C[C@H]1[C@@H](CC(=O)N[C@@H](Cc2coc3ccccc23)B(O)O)O[C@@H]2OC3(C)CC[C@H]4[C@H](C)CC[C@@H]1[C@@]24O3` , give the reported growth.
24.4

Which value of growth has been reported for COc1cc(C2CC(c3ccc(C(F)(F)F)cc3)=Nc3c(N)nc(N)nc3N2)ccc1Oc1nc(Nc2ccc(F)cc2)nc(N(C)C)n1 (centres undefined) in the records?
3.18

// query growth value for entry `Cc1cccc(C)c1Nc1nnc(-c2c[nH]c3ccccc23)o1`
83.4

Quick check: growth of `O=C(Nc1ccc(F)cc1)Nc1nc2ccc([N+](=O)[O-])cc2s1` ?
1.6

Would you mind telling me what growth value was observed for `Cc1ccc(-c2cc(C(=O)N=Nc3c(O)[nH]c4ccc(F)cc34)c3ccccc3n2)cc1` ?
18

Fill in: growth of CN(C)c1nc(NCCNS(=O)(=O)c2ccc(C3=Nc4c(N)nc(N)nc4NC(c4ccc(C(F)(F)F)cc4)C3)cc2)nc(N2CCOCC2)n1 (centres undefined) is ___
21.8

Quick one: growth for `Cn1cc(-c2cc(N)n3nc(-c4c[nH]c5ccccc45)cc3n2)c2cc(Cl)ccc21` ?
-70.3

###

Below, each of the compounds is paired with its reported growth value.
- Test system: HOP-62 NSCLC
- METHOD: NCI-60 one-dose screen, 48 h (100 = growth as untreated, 0 = no growth, -100 = all killed)
- SETTINGS: 10 µM unless noted
Compounds without any hit were thinned out: in the full panel of roughly 83,000, 20% have a hit.
Use % as the unit, but write only the number.

• COc1ccc(NC(=O)CSc2nnc(-c3ccc(-c4nc5ccc(Cl)cc5[nH]4)cc3)o2)cc1 = -25.4

Next item in the queue.
State the recorded growth for this entry: CN(C)c1nc(NCCNS(=O)(=O)c2ccc(C3=Nc4c(N)nc(N)nc4NC(c4ccc(C(F)(F)F)cc4)C3)cc2)nc(N2CCOCC2)n1 (centres undefined)
51.8
